Where do the numbers come from? From PubChem BioAssay.

biological target: Potassium voltage-gated channel subfamily KQT member 2 (Rattus norvegicus) (UniProt O88943); experiment: rat KCNQ2 channel potentiation, selectivity assay for KCNQ1 potentiator project, KCNQ2-CHO-K1 cells (AID 493009); details: FluxOR thallium flux fluorescence, at 10 µM, scaled: buffer 0, activator control 100;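 also: assay conditions were tuned for KCNQ1 rather than KCNQ2 modulators; signal is max minus min fluorescence divided by baseline after thallium stimulus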
Sequence (O88943 whole entry, looked up): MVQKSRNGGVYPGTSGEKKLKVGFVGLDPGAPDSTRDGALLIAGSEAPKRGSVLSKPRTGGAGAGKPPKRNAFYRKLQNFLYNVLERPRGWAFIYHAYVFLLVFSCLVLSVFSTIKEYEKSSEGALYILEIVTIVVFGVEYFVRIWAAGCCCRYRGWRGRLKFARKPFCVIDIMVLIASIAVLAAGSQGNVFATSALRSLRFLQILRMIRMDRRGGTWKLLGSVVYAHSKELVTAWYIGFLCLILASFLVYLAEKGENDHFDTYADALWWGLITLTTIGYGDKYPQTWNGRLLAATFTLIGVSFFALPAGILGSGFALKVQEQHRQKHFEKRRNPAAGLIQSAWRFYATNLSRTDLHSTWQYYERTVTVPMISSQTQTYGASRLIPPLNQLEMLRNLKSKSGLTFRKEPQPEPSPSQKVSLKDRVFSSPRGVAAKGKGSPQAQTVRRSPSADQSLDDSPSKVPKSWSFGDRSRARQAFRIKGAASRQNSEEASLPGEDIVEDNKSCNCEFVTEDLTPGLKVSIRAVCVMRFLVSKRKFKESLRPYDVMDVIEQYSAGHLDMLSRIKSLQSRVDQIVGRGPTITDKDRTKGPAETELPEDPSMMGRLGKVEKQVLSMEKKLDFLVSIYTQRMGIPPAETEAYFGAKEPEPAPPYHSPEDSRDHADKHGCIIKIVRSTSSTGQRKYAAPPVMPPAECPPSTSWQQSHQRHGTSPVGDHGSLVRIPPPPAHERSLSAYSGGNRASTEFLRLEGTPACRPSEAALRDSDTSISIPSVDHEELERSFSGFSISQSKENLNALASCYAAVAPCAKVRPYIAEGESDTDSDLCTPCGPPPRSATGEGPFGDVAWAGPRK
Calls of active or inactive are those of the source.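 The calls were made as follows: active = mean duplicate potentiation above the buffer control mean plus 5 SD of buffer wells; inactive = the rest.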
Labels: active, inactive

| smiles.str | classification |
| --- | --- |
| CCc1ccc(NC(=O)/C(C#N)=C/c2ccncc2)cc1 | inactive |
| Cc1cc(C)nc(NC(=O)/C=C/c2ccccc2Cl)n1 | inactive |
| Nc1nc(N)c2sc3nc4c(cc3c2n1)CCC4 | inactive |
| O=c1ccc(-c2ccc(S(=O)(=O)Nc3ccccc3)o2)n[nH]1 | inactive |
| Cc1cccc(-n2c(=S)[nH]c3sc4c(c3c2=O)CCc2ccccc2-4)c1 | active |
| O=c1sc(N2CCN(c3ccccc3F)CC2)nc2ccsc12 | inactive |

====

assay: thallium flux activation in parental CHO cells, counter-screen for KCNQ1 potentiator project (AID 493006); conditions: parental CHO-K1 cells, FluxOR thallium flux, at 10 µM;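 as to activation: fluorescence ratio of max minus min over baseline after K+ and Tl+ depolarization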
Calls of active or inactive are those of the source.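 The calls were made as follows: active = duplicate-averaged activation above buffer control mean plus 5 SD of those controls; inactive = the rest.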
Labels: active, inactive

| molecule | classification |
| --- | --- |
| Cc1ccc(C)c(/C=N/n2cc(-c3ccccc3)[nH]c2=S)c1 | inactive |
| Cc1ccc(NC(=S)N/N=C2/CCCCc3ccccc32)cc1 | active |
| CCc1nnc(NC(=O)c2ccc(S(=O)(=O)N(CC)Cc3ccccc3)cc2)o1 | active |
| CCC1(c2ccccc2)NC(=S)N(c2ccc(C)cc2)N1 (configuration not stated) | active |
| O=C(COC(=O)c1cc(S(=O)(=O)N2CCOCC2)ccc1O)NCCc1ccccc1 | inactive |
| CC(C)[N+]1(C)[C@@H]2CC[C@H]1CC(OC(=O)C(CO)c1ccccc1)C2 (some centres not stated) | inactive |
| O=C(Nc1cccnc1)NC1CCCCC1 | inactive |
| CCN(C(=O)c1cc2cc3ccc(C)cc3nc2o1)c1ccc(OC)cc1 | inactive |
| CC12CCC(C(=O)N(CSC(=S)N/N=C\c3ccccc3Cl)C1=O)C2(C)C (configuration not stated) | active |
| CN(CC(=O)NCCc1ccc(F)cc1)Cc1cccc(Cl)c1 | inactive |
| CCC1CCCCN1S(=O)(=O)c1ccc(NC(=O)c2cccnc2)cc1 (configuration not stated) | inactive |
| Oc1c(N=NC(=S)Nc2ccccc2F)c2ccccc2n1Cc1ccccc1F | active |

====

biological target: Potassium voltage-gated channel subfamily KQT member 1 (Homo sapiens) (UniProt P51787); assay: KCNQ1 potassium channel potentiators, confirmation, FluxOR thallium flux, CHO cells, duplicates (AID 493007); conditions: KCNQ1 cell line, FluxOR thallium flux fluorescence, at 10 µM, % of reference activator effect, buffer zero
Sequence (P51787 whole entry, looked up): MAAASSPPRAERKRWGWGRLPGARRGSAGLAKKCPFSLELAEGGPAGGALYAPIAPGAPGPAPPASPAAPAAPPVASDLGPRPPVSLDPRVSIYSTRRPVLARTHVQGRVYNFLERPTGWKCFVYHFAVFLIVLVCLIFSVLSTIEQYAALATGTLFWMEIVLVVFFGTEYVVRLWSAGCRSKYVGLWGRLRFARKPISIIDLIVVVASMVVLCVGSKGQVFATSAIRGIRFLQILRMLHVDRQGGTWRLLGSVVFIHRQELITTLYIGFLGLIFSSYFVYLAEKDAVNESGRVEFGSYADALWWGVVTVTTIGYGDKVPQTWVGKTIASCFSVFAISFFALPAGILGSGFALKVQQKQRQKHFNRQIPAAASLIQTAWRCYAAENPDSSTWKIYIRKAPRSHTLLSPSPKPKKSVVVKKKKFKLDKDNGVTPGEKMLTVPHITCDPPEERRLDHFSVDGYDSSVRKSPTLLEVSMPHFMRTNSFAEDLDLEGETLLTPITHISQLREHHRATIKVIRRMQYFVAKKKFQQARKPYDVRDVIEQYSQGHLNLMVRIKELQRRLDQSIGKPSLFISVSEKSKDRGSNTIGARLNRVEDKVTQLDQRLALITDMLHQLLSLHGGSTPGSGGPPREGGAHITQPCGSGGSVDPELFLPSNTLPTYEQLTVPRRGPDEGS
Activity calls are given as the source filed them.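 The calls were made as follows: active = potentiation averaged over duplicate wells exceeding buffer-only control mean by more than 3 SD; inactive = the rest.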
Labels: y for active, n for inactive

| compound | study.target | classification |
| --- | --- | --- |
| O=C(N/N=C/c1cc([N+](=O)[O-])cc(Br)c1O)C12CC3CCC(CC(C3)C1)C2 | Potassium voltage-gated channel subfamily KQT member 1 (Homo sapiens) (UniProt P51787) | y |
| Cc1ccccc1N(CC(=O)N/N=C/c1cc(C)n(-c2ccccc2C)c1C)S(C)(=O)=O | Potassium voltage-gated channel subfamily KQT member 1 (Homo sapiens) (UniProt P51787) | n |
| O=C(Nc1nnc(-c2ccco2)o1)c1cccc(Cl)c1 | Potassium voltage-gated channel subfamily KQT member 1 (Homo sapiens) (UniProt P51787) | n |
| OCCCCNCc1ccc(OCc2ccc(Cl)cc2Cl)cc1 | Potassium voltage-gated channel subfamily KQT member 1 (Homo sapiens) (UniProt P51787) | y |
| COc1cc(C(=O)NNC(=O)C2CC2)cc(OC)c1OC | Potassium voltage-gated channel subfamily KQT member 1 (Homo sapiens) (UniProt P51787) | n |
| O=C(Nc1nnc(-c2ccccc2)o1)c1ccc(Cl)cc1 | Potassium voltage-gated channel subfamily KQT member 1 (Homo sapiens) (UniProt P51787) | y |
| O=C(Nc1ccc2[nH]c(=S)sc2c1)Nc1ccccc1F | Potassium voltage-gated channel subfamily KQT member 1 (Homo sapiens) (UniProt P51787) | y |
| O=c1c2cc(NC(=S)NCCCN3CCC(Cc4ccccc4)CC3)ccc2nc2n1CCCCC2 | Potassium voltage-gated channel subfamily KQT member 1 (Homo sapiens) (UniProt P51787) | n |
| COc1ccc(C(=O)CSc2nnc(NC(=O)C3CC(=O)N(c4cccc(OC)c4)C3)s2)cc1 (centres undefined) | Potassium voltage-gated channel subfamily KQT member 1 (Homo sapiens) (UniProt P51787) | n |
| Cc1cccc(C(=O)NC(=S)NNC(=O)c2cccs2)c1 | Potassium voltage-gated channel subfamily KQT member 1 (Homo sapiens) (UniProt P51787) | y |
| CCOC(=O)CSC(=S)NC(=O)c1ccc(OC)cc1 | Potassium voltage-gated channel subfamily KQT member 1 (Homo sapiens) (UniProt P51787) | y |
| O=C(CNc1ccc(Br)cc1)NNC1=NCCC1 | Potassium voltage-gated channel subfamily KQT member 1 (Homo sapiens) (UniProt P51787) | n |
| COc1cc(C2NC(=O)NC(O)(C(F)(F)F)C2C(C)=O)cc(OC)c1OC (centres undefined) | Potassium voltage-gated channel subfamily KQT member 1 (Homo sapiens) (UniProt P51787) | n |
| Cc1ccccc1NC(=O)C(=O)NNC(=O)COc1ccc2ccccc2c1 | Potassium voltage-gated channel subfamily KQT member 1 (Homo sapiens) (UniProt P51787) | y |
| CCNc1nc(NCC)n2c(SCC(=O)Nc3ccc(F)cc3)nnc2n1 | Potassium voltage-gated channel subfamily KQT member 1 (Homo sapiens) (UniProt P51787) | n |
| CCOc1ccc(NC(=O)Cn2sc3nc(C)cc(C)c3c2=O)cc1 | Potassium voltage-gated channel subfamily KQT member 1 (Homo sapiens) (UniProt P51787) | n |
| O=C(Nc1nc(=O)c2ccccc2s1)c1ccc(F)cc1 | Potassium voltage-gated channel subfamily KQT member 1 (Homo sapiens) (UniProt P51787) | n |
| Cc1nn(-c2ccccc2)nc1C(=O)NNC(=O)c1cccc2ccccc12 | Potassium voltage-gated channel subfamily KQT member 1 (Homo sapiens) (UniProt P51787) | y |
| O=c1cc2c(nn1Cc1c(Cl)cccc1Cl)-c1ccccc1CC2 | Potassium voltage-gated channel subfamily KQT member 1 (Homo sapiens) (UniProt P51787) | y |
